# assay-system: BChE from equine serum (EqBChE) (Equus caballus, UniProt P81908)
# Construct: BChE from equine serum; purchased Merck (Prague, Czech Republic); host or cells: equine serum (natural source)
# Sequence (P81908 whole entry): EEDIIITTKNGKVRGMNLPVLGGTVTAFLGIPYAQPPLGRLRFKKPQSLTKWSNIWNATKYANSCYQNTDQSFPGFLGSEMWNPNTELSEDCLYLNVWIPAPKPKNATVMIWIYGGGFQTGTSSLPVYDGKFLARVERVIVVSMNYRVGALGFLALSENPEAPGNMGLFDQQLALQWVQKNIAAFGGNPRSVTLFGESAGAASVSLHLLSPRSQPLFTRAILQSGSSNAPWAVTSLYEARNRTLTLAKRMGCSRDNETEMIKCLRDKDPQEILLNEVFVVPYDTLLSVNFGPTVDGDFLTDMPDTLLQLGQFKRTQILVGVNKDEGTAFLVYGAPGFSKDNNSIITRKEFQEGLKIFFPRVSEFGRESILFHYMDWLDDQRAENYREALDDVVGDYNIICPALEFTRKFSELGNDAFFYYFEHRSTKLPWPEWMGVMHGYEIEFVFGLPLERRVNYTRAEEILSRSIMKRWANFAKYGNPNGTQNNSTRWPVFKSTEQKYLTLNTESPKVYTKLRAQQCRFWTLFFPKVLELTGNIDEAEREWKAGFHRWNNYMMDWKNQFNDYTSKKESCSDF
# experiment-description: biochemical
# Format: biochemical
# measurement-context: equine serum BChE; mean ± SD from three independent experiments
IC50 listing for selected compounds.

>>> result("CNC(=O)NNC(=O)c1ccc(I)cc1")
"> 500 µM"

Challenge: Fill in the blank: the reported IC50 of CCCCCCCCCCCCCNC(=O)NNC(=O)c1ccccc1Br is ____.
Response given: > 500 µM

Challenge: What value of IC50 has been reported for the following compound? CNC(=O)NNC(=O)c1cccc([N+](=O)[O-])c1
Response given: > 500 µM

Challenge: Tell me the measured IC50 of CNC(=O)NNC(=O)c1ccc(C#N)cc1 , please.
Response given: 448 µM

Challenge: Which value of IC50 has been reported for CNC(=O)NNC(=O)c1ccc(OC)cc1 in the records?
Response given: 171 µM

Challenge: Bench note: what IC50 did CCCCCCCCCCCCCNC(=O)NNC(=O)c1ccc(C)cc1 show?
Response given: 277 µM

Challenge: Item under review: CCCCCCCCCCCCCNC(=O)NNC(=O)c1cccc(Br)c1 . Reported IC50?
Response given: > 500 µM

Challenge: Fill in: IC50 of CCCCCCCCCCCCCNC(=O)NNC(=O)c1ccccc1C(F)(F)F is ___
Response given: 422 µM

Challenge: Field request: IC50 | item: CNC(=O)NNC(=O)c1ccccc1Br
Response given: > 500 µM

Challenge: Need IC50 of CNC(=O)NNC(=O)c1ccc(O)cc1 , thanks.
Response given: 247 µM

Challenge: Entry under review: CNC(=O)NNC(=O)c1ccc(Br)cc1 . Reported IC50?
Response given: 360 µM

Challenge: Need IC50 of CNC(=O)NNC(=O)c1ccc([N+](=O)[O-])cc1 , thanks.
Response given: 178 µM

----------
# assay-system: AChE (obtained from electric eel; EeAChE) (Electrophorus electricus, UniProt O42275)
# Construct: AChE (obtained from electric eel); purchased Merck (Prague, Czech Republic); host or cells: electric eel (natural source)
# Sequence (O42275 24-633): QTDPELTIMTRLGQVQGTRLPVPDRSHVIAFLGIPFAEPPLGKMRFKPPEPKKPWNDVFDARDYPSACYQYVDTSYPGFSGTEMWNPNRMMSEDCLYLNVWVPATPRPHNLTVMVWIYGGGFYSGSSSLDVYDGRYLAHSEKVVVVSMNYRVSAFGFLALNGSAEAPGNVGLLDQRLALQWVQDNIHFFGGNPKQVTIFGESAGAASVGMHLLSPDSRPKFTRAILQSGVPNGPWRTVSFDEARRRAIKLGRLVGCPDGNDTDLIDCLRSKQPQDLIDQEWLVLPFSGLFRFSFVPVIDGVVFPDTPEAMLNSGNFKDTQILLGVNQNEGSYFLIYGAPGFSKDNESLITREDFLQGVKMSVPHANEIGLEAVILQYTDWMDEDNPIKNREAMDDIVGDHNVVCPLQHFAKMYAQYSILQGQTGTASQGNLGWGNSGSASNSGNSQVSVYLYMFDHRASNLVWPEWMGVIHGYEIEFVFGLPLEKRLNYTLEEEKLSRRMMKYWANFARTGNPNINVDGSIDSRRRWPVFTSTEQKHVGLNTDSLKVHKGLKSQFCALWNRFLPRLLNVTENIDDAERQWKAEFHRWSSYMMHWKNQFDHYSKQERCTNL
# experiment-description: biochemical
# Type: biochemical
# measurement-context: SI = ratio of IC50 for BChE/IC50 for AChE; above 1 = stronger inhibition of AChE
# Excerpt: Hydrazinecarboxamides 1–3 were examined in vitro for their potential to inhibit the function of AChE (obtained from electric eel) and BChE from equine serum using Ellman’s spectrophotometric method (Table 2). The activities are expressed as IC50 values, i.e., concentrations leading to 50% inhibition of enzymatic activity. Based on the IC50 values for AChE and BChE, we calculated selectivity indexes (SI) that quantified the selectivity for each cholinesterase. […]
measured-parameter: Selectivity BChE/AChE
Please reply with the number alone, leaving off any unit.

Example entries and their recorded answers appear below.
>>> result_number("CNC(=O)NNC(=O)c1ccc(Br)cc1 [1g]")
7.1
>>> result_number("CCCCCCCCCCCCCNC(=O)NNC(=O)c1ccc(I)cc1 [1j]")
2.4
>>> result_number("CNC(=O)NNC(=O)c1ccc(Oc2ccccc2)cc1 [1w]")
4.0
>>> result_number("CCCCCCCCCCCCCNC(=O)NNC(=O)c1ccccc1 [1ff]")
3.2
>>> result_number("CCCCCCCCCCCCCNC(=O)NNC(=O)c1ccc(N(C)C)cc1 [1z]")
2.1

Challenge: What measured Selectivity BChE/AChE goes with CNC(=O)NNC(=O)c1ccc(OC)cc1 [1u] ?
Response given: 3.0

Challenge: Returns the measured Selectivity BChE/AChE for the input compound. Input: CNC(=O)NNC(=O)c1ccc(C)cc1 [1o]
Response given: 4.6

----------
Measured pIC50, listed per entry.
# assay-system: AChE (obtained from electric eel; EeAChE) (Electrophorus electricus)
# Construct: AChE (obtained from electric eel); purchased Merck (Prague, Czech Republic); host or cells: electric eel (natural source)
# experiment-description: biochemical
# Type: biochemical
# measurement-context: electric eel AChE; mean ± SD from three independent experiments
Scale note: pIC50 = -log10(concentration in M).

Please review the following examples before continuing.
>>> result_number("CNC(=O)NNC(=O)c1cccc(Br)c1")
4.29
>>> result_number("CCCCCCCCCCCCCNC(=O)NNC(=O)Cc1ccc(C(F)(F)F)cc1")
4.09
>>> result_number("CCCCCCCCCCCCCNC(=O)NNC(=O)c1ccc(-c2ccccc2)cc1")
4.29
>>> result_number("CCCCCCCCCCCCCNC(=O)NNS(=O)(=O)c1ccc(C(F)(F)F)cc1")
4.23
>>> result_number("CNC(=O)NNC(=O)c1ccc(C#N)cc1")
4.25

Challenge: # input compound: CCCCCCCCCCCCCNC(=O)NNC(=O)c1ccc(Oc2ccccc2)cc1 ; wanted: its pIC50
Response given: 4.23

Challenge: Recorded pIC50 of CNC(=O)NNC(=O)c1ccc(OC(F)(F)F)cc1 , please.
Response given: 4.25

Challenge: GET /values?readout=pIC50&item= CCCCCCCCCCCCCNC(=O)NNC(=O)c1cccc(C(F)(F)F)c1
Response given: 4.19

----------
# assay-system: AChE (obtained from electric eel; EeAChE) (Electrophorus electricus)
# Construct: AChE (obtained from electric eel); purchased Merck (Prague, Czech Republic); host or cells: electric eel (natural source)
# experiment-description: biochemical
# Type: biochemical
# measurement-context: SI = ratio of IC50 for BChE/IC50 for AChE; above 1 = stronger inhibition of AChE
measured-parameter: Selectivity BChE/AChE

>>> result("CCCCCCCCCCCCCNC(=O)NNC(=O)c1cccc(Br)c1")
">11.3"

Challenge: Could you share which Selectivity BChE/AChE value was measured for CNC(=O)NNC(=O)c1cccc([N+](=O)[O-])c1 ?
Response given: >7.4

Challenge: // returns reported Selectivity BChE/AChE for input CNC(=O)NNC(=O)c1ccccc1[N+](=O)[O-]
Response given: 3.0

Challenge: What value of Selectivity BChE/AChE has been reported for the following compound? CNC(=O)NNC(=O)c1ccc(S(N)(=O)=O)cc1
Response given: 2.9

Challenge: # lookup: Selectivity BChE/AChE of CCCCCCCCCCCCCNC(=O)NNC(=O)c1ccc(OC(F)(F)F)cc1
Response given: 1.9

Challenge: Given the entry CCCCCCCCCCCCCNC(=O)NNC(=O)c1ccc(Cl)cc1 , report its measured Selectivity BChE/AChE.
Response given: 1.0

Challenge: If you can, please state the reported Selectivity BChE/AChE value of CCCCCCCCCCCCCNC(=O)NNC(=O)c1ccccc1Br .
Response given: >9.3

----------
Each entry below carries its recorded IC50.
# assay-system: AChE (obtained from electric eel; EeAChE) (Electrophorus electricus)
# Construct: AChE (obtained from electric eel)
# experiment-description: biochemical
# measurement-context: electric eel AChE; mean ± SD from three independent experiments
Respond with the bare value in µM.

>>> result_number("CNC(=O)NNC(=O)c1ccc(OC)cc1")
57.2
>>> result_number("CNC(=O)NNC(=O)c1ccccc1C(F)(F)F")
61.1
>>> result_number("CCCCCCCCCCCCCNC(=O)NNC(=O)c1ccccc1")
73.4

Challenge: I have this molecule here, CCCCCCCCCCCCCNC(=O)NNC(=O)c1ccc(C#N)cc1 , and I need its recorded IC50.
Response given: 54.6

Challenge: Reported IC50 for CCCCCCCCCCCCCNC(=O)NNC(=O)c1ccc(OC)cc1 : what is it?
Response given: 83.6

Challenge: Query: IC50; subject: CNC(=O)NNC(=O)c1ccccc1
Response given: 63.3

Challenge: Return reported IC50; argument: CNC(=O)NNC(=O)Cc1ccc(C(F)(F)F)cc1
Response given: 68.5

Challenge: // returns reported IC50 for input CNC(=O)NNC(=O)c1ccc(Br)cc1
Response given: 50.6

Challenge: Entry CNC(=O)NNC(=O)c1ccc(F)cc1 has what IC50?
Response given: 57.2

Challenge: Which value of IC50 has been reported for CCCCCCCCCCCCCNC(=O)NNC(=O)c1cccc(Br)c1 in the records?
Response given: 44.3

Challenge: Need IC50 of CNC(=O)NNC(=O)c1ccc(-c2ccccc2)cc1 , thanks.
Response given: 64.4

----------
# assay-system: AChE (obtained from electric eel; EeAChE) (Electrophorus electricus, UniProt O42275)
# Construct: AChE (obtained from electric eel); purchased Merck (Prague, Czech Republic); host or cells: electric eel (natural source)
# experiment-description: biochemical
# Type: biochemical
# measurement-context: SI = ratio of IC50 for BChE/IC50 for AChE; above 1 = stronger inhibition of AChE
measured-parameter: Selectivity BChE/AChE
Form field (numeric): enter value without unit.

Solved cases (2 shown):
>>> result_number("CNC(=O)NNC(=O)c1ccc(-c2ccccc2)cc1")
4.7
>>> result_number("CNC(=O)NNC(=O)c1ccc(OC(F)(F)F)cc1")
3.6

Challenge: What Selectivity BChE/AChE appears in the records for this compound with AChE (obtained from electric eel; EeAChE) (Electrophorus electricus, UniProt O42275)? CNC(=O)NNC(=O)c1ccccc1
Response given: 3.6

Challenge: Return Selectivity BChE/AChE measured with AChE (obtained from electric eel; EeAChE) (Electrophorus electricus, UniProt O42275) given this compound: CCCCCCCCCCCCCNC(=O)NNC(=O)c1ccc(C)cc1
Response given: 2.8
